tgt: T1, hSEMA4D ECD-His (His-tagged human SEMA4D protein extracellular domain, Met22-Arg734) (human, UniProt Q92854 22-734)
T1 construct: Expressed in CHO-S cells, purified on Ni column; also called protein immunogen; immunogen A; not shown: His tag of the pCP vector
T1 sequence: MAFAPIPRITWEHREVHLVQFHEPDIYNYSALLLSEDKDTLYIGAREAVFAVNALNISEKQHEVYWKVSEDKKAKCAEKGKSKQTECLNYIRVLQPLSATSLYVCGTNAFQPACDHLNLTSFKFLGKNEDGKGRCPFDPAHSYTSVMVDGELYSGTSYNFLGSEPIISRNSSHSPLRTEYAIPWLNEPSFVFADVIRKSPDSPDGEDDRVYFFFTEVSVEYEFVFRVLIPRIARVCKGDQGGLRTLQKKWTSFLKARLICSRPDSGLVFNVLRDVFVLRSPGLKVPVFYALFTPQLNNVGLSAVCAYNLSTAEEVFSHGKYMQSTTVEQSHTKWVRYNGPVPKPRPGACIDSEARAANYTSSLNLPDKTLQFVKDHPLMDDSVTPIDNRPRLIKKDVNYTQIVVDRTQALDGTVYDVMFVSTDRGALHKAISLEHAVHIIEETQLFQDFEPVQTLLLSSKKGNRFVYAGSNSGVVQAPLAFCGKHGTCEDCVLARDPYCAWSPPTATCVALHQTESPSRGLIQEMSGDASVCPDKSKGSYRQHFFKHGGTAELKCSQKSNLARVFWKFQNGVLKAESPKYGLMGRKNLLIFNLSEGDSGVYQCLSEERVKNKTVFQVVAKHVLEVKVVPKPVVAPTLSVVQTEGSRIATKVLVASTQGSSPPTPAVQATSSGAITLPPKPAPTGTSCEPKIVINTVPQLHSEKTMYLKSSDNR
assay_remarks: ELISA, coated hSEMA4D ECD-His; Ab 0.00213 nM
Class Fulfilled: OD450 nm at least 0.09. Class Not fulfilled: OD450 nm below 0.09.

These recorded examples may help you get a feel for the data.
32C8F10 (antibody, V domains shown, Mouse monoclonal antibody purified from hybridoma supernatant on protein A) VH: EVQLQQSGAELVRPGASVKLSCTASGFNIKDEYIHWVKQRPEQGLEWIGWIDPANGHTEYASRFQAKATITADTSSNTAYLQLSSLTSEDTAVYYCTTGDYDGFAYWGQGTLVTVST VL: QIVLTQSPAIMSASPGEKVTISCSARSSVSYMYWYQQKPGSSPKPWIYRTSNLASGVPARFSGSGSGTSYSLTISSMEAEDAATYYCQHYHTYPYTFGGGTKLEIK : Not fulfilled
38H2E3 (antibody, V domains shown, Mouse monoclonal antibody purified from hybridoma supernatant on protein A) VH: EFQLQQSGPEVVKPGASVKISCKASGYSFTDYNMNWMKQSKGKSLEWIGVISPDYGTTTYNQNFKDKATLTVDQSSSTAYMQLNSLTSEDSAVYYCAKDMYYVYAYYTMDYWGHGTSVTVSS VL: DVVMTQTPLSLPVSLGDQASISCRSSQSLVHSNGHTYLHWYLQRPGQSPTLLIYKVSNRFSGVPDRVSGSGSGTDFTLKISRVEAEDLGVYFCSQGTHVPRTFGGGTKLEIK : Not fulfilled
37F11F9 (antibody, V domains shown, Mouse monoclonal antibody purified from hybridoma supernatant on protein A) VH: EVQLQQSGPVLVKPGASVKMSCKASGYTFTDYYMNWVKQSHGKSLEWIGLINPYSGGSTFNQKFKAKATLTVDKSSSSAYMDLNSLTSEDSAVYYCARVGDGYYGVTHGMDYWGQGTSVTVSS VL: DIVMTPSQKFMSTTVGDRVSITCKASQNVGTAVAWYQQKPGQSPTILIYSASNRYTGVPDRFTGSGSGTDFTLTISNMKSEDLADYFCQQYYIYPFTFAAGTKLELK : Fulfilled
42B7G2 (antibody, V domains shown, Mouse monoclonal antibody purified from hybridoma supernatant on protein A) VH: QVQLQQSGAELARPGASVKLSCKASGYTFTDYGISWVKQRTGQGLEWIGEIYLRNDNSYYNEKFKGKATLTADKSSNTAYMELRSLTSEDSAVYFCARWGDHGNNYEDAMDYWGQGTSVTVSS VL: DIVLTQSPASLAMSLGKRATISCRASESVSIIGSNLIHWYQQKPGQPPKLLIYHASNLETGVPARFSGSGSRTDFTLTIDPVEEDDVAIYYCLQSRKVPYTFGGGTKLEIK : Fulfilled
37C4F7 (antibody, V domains shown, Mouse monoclonal antibody purified from hybridoma supernatant on protein A) VH: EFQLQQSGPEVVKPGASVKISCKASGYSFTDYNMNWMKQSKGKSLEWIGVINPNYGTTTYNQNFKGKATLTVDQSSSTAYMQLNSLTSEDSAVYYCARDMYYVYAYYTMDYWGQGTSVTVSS VL: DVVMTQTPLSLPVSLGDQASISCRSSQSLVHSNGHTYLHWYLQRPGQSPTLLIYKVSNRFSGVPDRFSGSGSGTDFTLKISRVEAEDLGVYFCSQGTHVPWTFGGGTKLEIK : Not fulfilled

Request: Can 31C11G2 (antibody, V domains shown, Mouse monoclonal antibody purified from hybridoma supernatant on protein A) VH: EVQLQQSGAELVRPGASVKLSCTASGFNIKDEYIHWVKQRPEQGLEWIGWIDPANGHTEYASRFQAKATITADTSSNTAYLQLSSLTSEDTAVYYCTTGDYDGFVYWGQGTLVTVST VL: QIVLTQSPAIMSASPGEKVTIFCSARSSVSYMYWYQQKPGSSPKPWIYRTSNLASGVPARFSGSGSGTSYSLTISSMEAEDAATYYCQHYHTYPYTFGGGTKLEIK be said to have OD450 nm at or above 0.09?
Result: Fulfilled

Request: Can 31G10C5 (antibody, V domains shown, Mouse monoclonal antibody purified from hybridoma supernatant on protein A) VH: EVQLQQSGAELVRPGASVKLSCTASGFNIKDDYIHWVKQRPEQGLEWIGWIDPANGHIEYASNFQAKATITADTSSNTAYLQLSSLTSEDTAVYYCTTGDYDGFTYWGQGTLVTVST VL: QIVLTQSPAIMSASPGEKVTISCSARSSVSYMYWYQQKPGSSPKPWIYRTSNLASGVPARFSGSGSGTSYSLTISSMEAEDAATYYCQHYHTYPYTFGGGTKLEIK be said to have OD450 nm at or above 0.09?
Result: Fulfilled
